# LC retention time annotations
Assay: Waters ACQUITY UPLC BEH C18, 100 × 2.1 mm, 1.7 µm, 40 °C, 0.3 to 0.4 mL/min, estimated dead time 0.63 min; A: water + 0.1% formic acid; B: methanol + 0.1% formic acid; gradient (min/%B) 0/0.5 0.1/0.5 10/80 10.1/99.5 12/99.5
Details: stereoisomer not certain
API: value field is a number in min; no unit string.

molecule	LC retention time (min)
c1ccc2c3ccn4cc5c(cc4c-3nc2c1)CCCC5	5.23
COc1cc2c(=O)c(-c3ccc(O)cc3)coc2cc1O	5.3
CC(C)CC(NC(=O)Cc1c[nH]c2ccccc12)C(=O)O (centres undefined)	6.2
CCN1CC2(C)CCC(O)C34C5CC6C(OC)CC(O)(C(CC23)C14)C5C6O (centres undefined)	2.89
Nc1ncnc2c1ncn2C1OC(CO)C(O)C1O (centres undefined)	1.88
CC1CCC2C(C)C3C(CC4C5CC=C6CC(OC7OC(CO)C(OC8OC(C)C(O)C(O)C8O)C(O)C7OC7OC(C)C(O)C(O)C7O)CCC6(C)C5CCC43C)N2C1 (centres undefined)	5.01

Ask | Look at this molecule and give its reported LC retention time. COc1cc(-c2oc3cc(O)cc(O)c3c(=O)c2OC2OC(COC3OC(C)C(O)C(O)C3O)C(O)C(O)C2O)ccc1O (centres undefined)
Reply | 4.17

Ask | Moving on to the next molecule: COC(=O)C1CC23CCCN4CCC5(c6ccccc6NC15CC2)C43 (centres undefined)
Reply | 3.92

Ask | Same read-out for C=CC1CN2CCc3c([nH]c4ccccc34)C2CC1C(=COC)C(=O)OC (centres undefined) ?
Reply | 5.68

###

This section presents compounds with their documented LC retention time values.
Test: Waters ACQUITY UPLC BEH C18, 100 × 2.1 mm, 1.7 µm, 40 °C, 0.3 to 0.4 mL/min, estimated dead time 0.63 min; A: water + 0.1% formic acid; B: methanol + 0.1% formic acid; gradient (min/%B) 0/0.5 0.1/0.5 10/80 10.1/99.5 12/99.5
Details: stereoisomer not certain

The following compounds have reported results that may help.
compound	LC retention time
CC(=O)OC1C(C(=O)O)OC(OC2C(O)C(O)OC(CO)C2O)C(O)C1OC1OC(CO)C(O)C(O)C1O (centres undefined)	5.48 min
CC(C)=CCc1cc(C2COc3cc(O)c(CC=C(C)C)c(O)c3C2=O)ccc1O (centres undefined)	9.45 min
COc1ccc(CCC(=O)c2c(O)cc(OC3OC(CO)C(O)C(O)C3OC3OC(C)C(O)C(O)C3O)cc2O)cc1O (centres undefined)	5.07 min

Please find the next compound below.
Ask | Reported LC retention time, compound CC1OC(OC2C(CO)OC(OCC3OC(OC(=O)C45CCC(C)(C)CC4C4=CCC6C7(C)CCC(OC8OCC(O)C(O)C8OC8OC(C)C(O)C(O)C8O)C(C)(CO)C7CCC6(C)C4(C)CC5)C(O)C(O)C3O)C(O)C2O)C(O)C(O)C1O (centres undefined) : ____
Reply | 5.38 min

###

Assay: Waters ACQUITY UPLC BEH C18, 100 × 2.1 mm, 1.7 µm, 40 °C, 0.3 to 0.4 mL/min, estimated dead time 0.63 min; A: water + 0.1% formic acid; B: methanol + 0.1% formic acid; gradient (min/%B) 0/0.5 0.1/0.5 10/80 10.1/99.5 12/99.5
Settings: stereoisomer not certain
Below, each of the molecules is paired with its reported LC retention time value.
Please state the value followed by its unit.

molecule	LC retention time
CCC(C)C(NC(=O)C(N)C(C)C)C(=O)O (stereo not drawn)	2.88 min

Ask | What does the record list as LC retention time for OCC(Cc1cccc(O)c1)C(CO)Cc1cccc(O)c1 (stereo not drawn) ?
Reply | 5.26 min

Ask | NC(C(=O)O)c1ccccc1 (stereo not drawn) , same question.
Reply | 2 min

Ask | Then what about the molecule COc1ccc2c(c1)OC(OC1OC(C(=O)O)C(O)C(O)C1O)C(O)N2 (stereo not drawn) ?
Reply | 2.19 min

Ask | Now the same for "O=C(O)CCSCCC(=O)O"
Reply | 2.06 min
